Biological target: Fatty-acid amide hydrolase 1 (Homo sapiens)
Sequence (O00519 whole entry): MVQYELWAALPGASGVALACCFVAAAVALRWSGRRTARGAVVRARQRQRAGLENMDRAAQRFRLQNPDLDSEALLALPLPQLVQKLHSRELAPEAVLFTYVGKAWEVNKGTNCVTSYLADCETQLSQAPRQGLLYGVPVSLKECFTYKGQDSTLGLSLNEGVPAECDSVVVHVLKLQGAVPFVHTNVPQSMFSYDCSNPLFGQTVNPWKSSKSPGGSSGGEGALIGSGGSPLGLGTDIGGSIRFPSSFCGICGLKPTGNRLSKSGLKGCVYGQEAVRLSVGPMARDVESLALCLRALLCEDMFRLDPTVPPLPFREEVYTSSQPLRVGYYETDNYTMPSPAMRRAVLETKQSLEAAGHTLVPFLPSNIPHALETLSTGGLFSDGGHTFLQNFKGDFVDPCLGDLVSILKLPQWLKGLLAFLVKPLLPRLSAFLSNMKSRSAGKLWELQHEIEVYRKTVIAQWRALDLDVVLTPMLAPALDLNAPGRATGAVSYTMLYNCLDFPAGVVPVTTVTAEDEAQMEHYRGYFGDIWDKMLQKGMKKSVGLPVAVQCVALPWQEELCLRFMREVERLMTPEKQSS
Assay: Inhibition of recombinant human FAAH using fluorogenic arachidonoyl-AMC as substrate preincubated for 30 mins followed by substrate addition measured after 60 mins by fluorescence based assay
Attribute Measured: IC50 (µM)
All answers are understood in µM, so give the number only.

Query block: Sample O=C(O[C@H](CF)C(F)(F)F)N1C[C@@H]2[C@H](C1)[C@H]2c1ccn(-c2ccc(F)cc2)n1 — what was its IC50?
Result block: 1.9

Query block: Consider the molecule shown here: O=C(Oc1ccc([N+](=O)[O-])cc1)N1C[C@@H]2[C@H](C1)[C@H]2c1ccn(-c2ccc(F)cc2)n1 What is its recorded IC50?
Result block: 0.018

Query block: Give the measured IC50 of O=C(O[C@H](CO)C(F)(F)F)N1C[C@@H]2[C@H](C1)[C@H]2c1ccn(-c2ccc(F)cc2)n1 .
Result block: 3.1

Query block: So what's the measured IC50 for this one? O=C(O[C@@H](CO)C(F)(F)F)N1C[C@@H]2[C@H](C1)[C@H]2c1ccn(-c2ccc(F)cc2)n1
Result block: 26

Query block: Tell me the measured IC50 of O=C(ON1C(=O)CCC1=O)N1C[C@@H]2[C@H](C1)[C@H]2c1ccn(-c2ccc(F)cc2)n1 , please.
Result block: 3.6

Query block: Recorded IC50 for O=C(OC(C(F)(F)F)C(F)(F)F)N1C[C@@H]2[C@H](C1)[C@H]2c1ccn(-c2ccc(F)cc2)n1 , please?
Result block: 4.3
